Reported IC50 values for a set of compounds
tested on: 843126-344-R-J1-PDC complex spheroid viability; experiment: Anticancer human tumor 843126-344-R-J1-PDC patient-derived melanoma cell line growth inhibition [POLQ]; conditions: curve of first compound; second compound 10 µM

Here are 2 compounds together with their reported answers.
C=CCn1c(=O)c2cnc(Nc3ccc(N4CCN(C)CC4)cc3)nc2n1-c1cccc(C(C)(C)O)n1 + COC1C(OC(N)=O)C(O)C(Oc2ccc3c(O)c(NC(=O)c4ccc(O)c(CC=C(C)C)c4)c(=O)oc3c2C)OC1(C)C = > 1000 nM
O=c1[nH]cc(F)c(=O)[nH]1 + Nc1ccc(C#CCN(C(=O)Cc2ncc(C(F)(F)F)cc2C(F)(F)F)c2ccc(F)cc2)nn1 = > 10000 nM

In the following, a different compound is considered.
Exercise: // returns reported IC50 for input COc1cccc2c1C(=O)c1c(O)c3c(c(O)c1C2=O)CC(O)(C(=O)CO)CC3OC1CC(N)C(O)C(C)O1 (stereo not drawn) + Cc1cccc(N(C)C(=O)C2C(O)CCN2c2nc(C)cc(C(F)(F)F)c2C#N)c1
Key: 152 nM

----------
tested on: 843126-344-R-J1-PDC complex spheroid viability; assay: Anticancer human tumor 843126-344-R-J1-PDC cell line growth inhibition [POLQ]; conditions: second compound 1 µM; first compound 0.00316 µM; stronger effect = lower value;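 on viability, T/C: spheroids exposed to drugs for seven days before readout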
Recorded viability, T/C values for a group of compounds are listed next.
# unit: % | format: bare number

# example entries with known answers
C=CCn1c(=O)c2cnc(Nc3ccc(N4CCN(C)CC4)cc3)nc2n1-c1cccc(C(C)(C)O)n1 + Nc1ccc(C#CCN(C(=O)Cc2ncc(C(F)(F)F)cc2C(F)(F)F)c2ccc(F)cc2)nn1 = 106
COc1cccc(OCCCN)c1-c1cc(Nc2cnc(C#N)cn2)n[nH]1 + COC1C(OC(N)=O)C(O)C(Oc2ccc3c(O)c(NC(=O)c4ccc(O)c(CC=C(C)C)c4)c(=O)oc3c2C)OC1(C)C = 96

Exercise: Requested read-out: viability, T/C. Entry: Cn1ncnc1[C@H]1c2n[nH]c(=O)c3cc(F)cc(c23)N[C@@H]1c1ccc(F)cc1 + COC1C(OC(N)=O)C(O)C(Oc2ccc3c(O)c(NC(=O)c4ccc(O)c(CC=C(C)C)c4)c(=O)oc3c2C)OC1(C)C
Key: 105

Exercise: Same for C=CCn1c(=O)c2cnc(Nc3ccc(N4CCN(C)CC4)cc3)nc2n1-c1cccc(C(C)(C)O)n1 + COC1C(OC(N)=O)C(O)C(Oc2ccc3c(O)c(NC(=O)c4ccc(O)c(CC=C(C)C)c4)c(=O)oc3c2C)OC1(C)C
Key: 78.4

----------
system: 843126-344-R-J1-PDC complex spheroid viability; assay: Anticancer human tumor 843126-344-R-J1-PDC cell line growth inhibition [POLQ]; conditions: second compound 10 µM; first compound 0.00316 µM; stronger effect = lower value;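 on viability, T/C: spheroids exposed to drugs for seven days before readout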
Measured viability, T/C by item
Just the number in %, nothing appended.

Known viability, T/C results, listed for orientation:
C=CCn1c(=O)c2cnc(Nc3ccc(N4CCN(C)CC4)cc3)nc2n1-c1cccc(C(C)(C)O)n1 + Nc1ccc(C#CCN(C(=O)Cc2ncc(C(F)(F)F)cc2C(F)(F)F)c2ccc(F)cc2)nn1 = 94.1
CC[C@@]1(O)C(=O)OCc2c1cc1n(c2=O)Cc2cc3c(CN(C)C)c(O)ccc3nc2-1 + Nc1ccc(C#CCN(C(=O)Cc2ncc(C(F)(F)F)cc2C(F)(F)F)c2ccc(F)cc2)nn1 = 87.8

Read the next record carefully.
Exercise: // returns reported viability, T/C for input COc1cccc(OCCCN)c1-c1cc(Nc2cnc(C#N)cn2)n[nH]1 + Nc1ccc(C#CCN(C(=O)Cc2ncc(C(F)(F)F)cc2C(F)(F)F)c2ccc(F)cc2)nn1
Key: 84.8

----------
system: 843126-344-R-J1-PDC complex spheroid viability; assay: Anticancer human tumor 843126-344-R-J1-PDC cell line growth inhibition [POLQ]; conditions: second compound 0.0316 µM; first compound 0.0316 µM; stronger effect = lower value;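 on viability, T/C: spheroids exposed to drugs for seven days before readout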
Label yes (1) when viability, T/C < 90%; otherwise no (0).

Consider the following illustrative entries.
COc1cccc2c1C(=O)c1c(O)c3c(c(O)c1C2=O)CC(O)(C(=O)CO)CC3OC1CC(N)C(O)C(C)O1 (stereo unspecified) + COC1C(OC(N)=O)C(O)C(Oc2ccc3c(O)c(NC(=O)c4ccc(O)c(CC=C(C)C)c4)c(=O)oc3c2C)OC1(C)C = yes (1)
O=C(Nc1ccc(O)c(NS(=O)(=O)c2ccc(F)cc2)c1)c1ccc(-c2ccccc2)cc1 + COC1C(OC(N)=O)C(O)C(Oc2ccc3c(O)c(NC(=O)c4ccc(O)c(CC=C(C)C)c4)c(=O)oc3c2C)OC1(C)C = no (0)

Exercise: Strictly below 90% in viability, T/C? COc1cc(C2c3cc4c(cc3C(OC3OC5COC(C)OC5C(O)C3O)C3COC(=O)C23)OCO4)cc(OC)c1O (stereo unspecified) + COC1C(OC(N)=O)C(O)C(Oc2ccc3c(O)c(NC(=O)c4ccc(O)c(CC=C(C)C)c4)c(=O)oc3c2C)OC1(C)C
Key: yes (1)

Exercise: Can you check COc1ccc([C@@H](O)c2cc(-c3ncnc4cc(N5CCOCC5)ccc34)c(F)cc2Cl)nn1 + Nc1ccc(C#CCN(C(=O)Cc2ncc(C(F)(F)F)cc2C(F)(F)F)c2ccc(F)cc2)nn1 next?
Key: no (0)

----------
tested on: 843126-344-R-J1-PDC complex spheroid viability; assay: Anticancer human tumor 843126-344-R-J1-PDC cell line growth inhibition [POLQ]; conditions: second compound 10 µM; first compound 1 µM; stronger effect = lower value;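 on viability, T/C: spheroids exposed to drugs for seven days before readout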
Criterion: viability, T/C strictly less than 80%. Met: TRUE. Not met: FALSE.

Consider the following illustrative entries.
COc1ccc([C@@H](O)c2cc(-c3ncnc4cc(N5CCOCC5)ccc34)c(F)cc2Cl)nn1 + Cc1cccc(N(C)C(=O)C2C(O)CCN2c2nc(C)cc(C(F)(F)F)c2C#N)c1 = TRUE
C#Cc1c(F)ccc2cc(O)cc(-c3ncc4c(N5CC6CCC(C5)N6)nc(OCC56CCCN5CC(F)C6)nc4c3F)c12 (stereo not given) + Cc1cccc(N(C)C(=O)C2C(O)CCN2c2nc(C)cc(C(F)(F)F)c2C#N)c1 = FALSE

Exercise: Say whether its viability, T/C is strictly beneath 80%. Entry: O=C(Nc1ccc(O)c(NS(=O)(=O)c2ccc(F)cc2)c1)c1ccc(-c2ccccc2)cc1 + Nc1ccc(C#CCN(C(=O)Cc2ncc(C(F)(F)F)cc2C(F)(F)F)c2ccc(F)cc2)nn1
Key: TRUE

----------
System: 843126-344-R-J1-PDC complex spheroid viability
Assay: Anticancer human tumor 843126-344-R-J1-PDC cell line growth inhibition [POLQ];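 on viability, T/C: spheroids exposed to drugs for seven days before readout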
Details: second compound 3.16 µM; first compound 3.16 µM; stronger effect = lower value
Method: Multicellular complex tumor spheroid response to Polymerase (POL) inhibitors (novobiocin, ART-558, RP6685) in combination with a variety of drugs and investigational agents in selected tumor cell lines The POL inhibitors (novobiocin, ART-558, and RP6685) were evaluated both individually and in combination with standard of care and investigational anticancer small molecules within a complex spheroid model of solid tumors. . […]
measurement.label: viability, T/C (%)
Report the figure in % without appending any unit label.

CCCS(=O)(=O)Nc1ccc(F)c(C(=O)c2c[nH]c3ncc(-c4ccc(Cl)cc4)cc23)c1F + COC1C(OC(N)=O)C(O)C(Oc2ccc3c(O)c(NC(=O)c4ccc(O)c(CC=C(C)C)c4)c(=O)oc3c2C)OC1(C)C = 77.9

Exercise: Which measured viability, T/C value corresponds to O=C(c1cc(Cc2n[nH]c(=O)c3ccccc23)ccc1F)N1CCN(C(=O)C2CC2)CC1 + COC1C(OC(N)=O)C(O)C(Oc2ccc3c(O)c(NC(=O)c4ccc(O)c(CC=C(C)C)c4)c(=O)oc3c2C)OC1(C)C ?
Key: 83.5

Exercise: And what about the molecule O=c1[nH]cc(F)c(=O)[nH]1 + COC1C(OC(N)=O)C(O)C(Oc2ccc3c(O)c(NC(=O)c4ccc(O)c(CC=C(C)C)c4)c(=O)oc3c2C)OC1(C)C ?
Key: 75.2

Exercise: Moving on to O=C(c1cc(Cc2n[nH]c(=O)c3ccccc23)ccc1F)N1CCN(C(=O)C2CC2)CC1 + Cc1cccc(N(C)C(=O)C2C(O)CCN2c2nc(C)cc(C(F)(F)F)c2C#N)c1
Key: 84.2

Exercise: Try this molecule next: COc1cc(C2c3cc4c(cc3C(OC3OC5COC(C)OC5C(O)C3O)C3COC(=O)C23)OCO4)cc(OC)c1O (stereo not given) + COC1C(OC(N)=O)C(O)C(Oc2ccc3c(O)c(NC(=O)c4ccc(O)c(CC=C(C)C)c4)c(=O)oc3c2C)OC1(C)C
Key: 64.4

Exercise: Follow-up entry: CC1COCCN1c1cc(C2(O)CC3CCC(C2)O3)c2cnn(-c3ccn[nH]3)c2n1 (stereo not given) + Cc1cccc(N(C)C(=O)C2C(O)CCN2c2nc(C)cc(C(F)(F)F)c2C#N)c1
Key: 33.2

Exercise: Could you do the same for CC1COCCN1c1cc(C2(S(C)(=N)=O)CC2)nc(-c2ccnc3[nH]ccc23)n1 (stereo not given) + Cc1cccc(N(C)C(=O)C2C(O)CCN2c2nc(C)cc(C(F)(F)F)c2C#N)c1 , please?
Key: 78.4

Exercise: Please give the result for CC1COCCN1c1cc(C2(O)CC3CCC(C2)O3)c2cnn(-c3ccn[nH]3)c2n1 (stereo not given) + COC1C(OC(N)=O)C(O)C(Oc2ccc3c(O)c(NC(=O)c4ccc(O)c(CC=C(C)C)c4)c(=O)oc3c2C)OC1(C)C too.
Key: 26.1

Exercise: Now the same for CCc1cc2c(N3CCc4c(cc(Cn5ccnc5)cc4-c4cn(C)nc4C(F)(F)F)C3=O)ccnc2c(OC)n1 + Nc1ccc(C#CCN(C(=O)Cc2ncc(C(F)(F)F)cc2C(F)(F)F)c2ccc(F)cc2)nn1
Key: 82.7

Exercise: Would you mind doing C#Cc1c(F)ccc2cc(O)cc(-c3ncc4c(N5CC6CCC(C5)N6)nc(OCC56CCCN5CC(F)C6)nc4c3F)c12 (stereo not given) + Cc1cccc(N(C)C(=O)C2C(O)CCN2c2nc(C)cc(C(F)(F)F)c2C#N)c1 as well?
Key: 82.7

Exercise: Input C#Cc1c(F)ccc2cc(O)cc(-c3ncc4c(N5CC6CCC(C5)N6)nc(OCC56CCCN5CC(F)C6)nc4c3F)c12 (stereo not given) + COC1C(OC(N)=O)C(O)C(Oc2ccc3c(O)c(NC(=O)c4ccc(O)c(CC=C(C)C)c4)c(=O)oc3c2C)OC1(C)C
Key: 86.6

Exercise: Also O=C(Nc1ccc(O)c(NS(=O)(=O)c2ccc(F)cc2)c1)c1ccc(-c2ccccc2)cc1 + COC1C(OC(N)=O)C(O)C(Oc2ccc3c(O)c(NC(=O)c4ccc(O)c(CC=C(C)C)c4)c(=O)oc3c2C)OC1(C)C ?
Key: 89.4

Exercise: Also need COc1cccc2c1C(=O)c1c(O)c3c(c(O)c1C2=O)CC(O)(C(=O)CO)CC3OC1CC(N)C(O)C(C)O1 (stereo not given) + Nc1ccc(C#CCN(C(=O)Cc2ncc(C(F)(F)F)cc2C(F)(F)F)c2ccc(F)cc2)nn1 , thanks.
Key: 3.21
